Each item that follows carries a reported inhibition at 3 µM.
System: Fusarium proliferatum
Experiment: Antimicrobial activity against Fusarium proliferatum at 3 uM after 72 hrs by microtiter assay
Type: functional
Reply with just the number (in %).

Below, each entry is followed by its recorded inhibition at 3 µM result.
1) O=C1C2CC=CCC2C(=O)N1SC(Cl)(Cl)Cl (stereo not given); 0
2) C/C=C1\NC(=O)[C@H](Cc2ccccc2)NC(=O)[C@@H](C(C)C)NC(=O)[C@@H]([C@@H](C)CC)NC(=O)[C@H](NC(=O)[C@H](NC(=O)[C@H](CCCN)NC(=O)[C@H]2CCCN2C(=O)[C@@H](NC(=O)[C@H](NC(=O)[C@H](NC(=O)[C@@H](NC(=O)CCCC(C)C)C(C)C)[C@H](C)OC(C)=O)C(C)C)C(C)C)[C@@H](C)CC)[C@@H](C)OC(=O)[C@H](C(C)C)NC1=O; 0.3
3) C/C=C1\NC(=O)[C@H](Cc2ccccc2)NC(=O)[C@@H](C(C)C)NC(=O)[C@@H]([C@@H](C)CC)NC(=O)[C@H](NC(=O)[C@H](NC(=O)[C@H](CCCNC(=O)c2cc3ccc(N(CC)CC)cc3oc2=O)NC(=O)[C@H]2CCCN2C(=O)[C@H](NC(=O)[C@@H](NC(=O)[C@@H](NC(=O)[C@H](NC(=O)CCCC(C)C)C(C)C)[C@@H](C)O)C(C)C)C(C)C)[C@@H](C)CC)[C@@H](C)OC(=O)[C@H](C(C)C)NC1=O; 0
4) C/C=C1\NC(=O)[C@H](Cc2ccccc2)NC(=O)[C@@H](C(C)C)NC(=O)[C@@H]([C@H](C)CC)NC(=O)[C@H](NC(=O)[C@H](NC(=O)[C@H](CCCN)NC(=O)[C@H]2CCCN2C(=O)[C@H](NC(=O)[C@@H](NC(=O)[C@@H](NC(=O)[C@H](NC(=O)CCCC(C)C)C(C)C)[C@@H](C)O)C(C)C)C(C)C)[C@H](C)CC)[C@H](C)OC(=O)[C@H](C(C)C)NC1=O [KAHALALIDE F]; 0

Let us examine a further case.
Prompt: Determine from records and report inhibition at 3 µM for `CO/C=C(/C(=O)OC)c1ccccc1Oc1cc(Oc2ccccc2C#N)ncn1`
Response: 14.8
